Tested on: Wolbachia pipientis
Assay Details: Anti-Wolbachia Cell-Based Screen
Assay type: functional
Design: scale not given: in the data most compounds retested in dose-response had high values
Experimental Setup: 5 µM
Hit rate of the full screen: of about 48,000 compounds, about 13,000 (27%) showed an effect of 50% or more. This is one part of the list.
Some compounds, each annotated with its measured Percent Effect.

Compound: CCS(=O)(=O)N1CC(=O)N(CCOc2ccccc2)CC(O)C1 (stereo unspecified)
System Tested: Wolbachia pipientis
Percent Effect (%): 118.2

Compound: COCCC1COC2(CCN(C(=O)C3CCCC3)CC2)C1 (stereo unspecified)
System Tested: Wolbachia pipientis
Percent Effect (%): -1.347

Compound: CS(=O)(=O)N1CCC2(CC1)CN(CCn1cccn1)C(=O)CO2
System Tested: Wolbachia pipientis
Percent Effect (%): -11.65

Compound: COCCC1COC2(CCN(C(C)=O)CC2)C1 (stereo unspecified)
System Tested: Wolbachia pipientis
Percent Effect (%): -6.336

Compound: CS(=O)(=O)N1CCOC2(CCCC2)C1
System Tested: Wolbachia pipientis
Percent Effect (%): -2.404

Compound: NCC1Cc2cccc(-c3ccc(O)c(F)c3)c2O1 (stereo unspecified)
System Tested: Wolbachia pipientis
Percent Effect (%): 16.35

====

Test system: Wolbachia pipientis
Assay Details: Anti-Wolbachia Cell-Based Screen
Assay type: functional
Design: scale not given: in the data most compounds retested in dose-response had high values
Experimental Setup: 5 µM
In all, about 48,000 compounds went through this assay and about 13,000 (27%) showed an effect of 50% or more. The list shows a part of the results.

Compound: CC(C)c1nccn1C(C)C(=O)NCc1noc(Cc2cccs2)n1 (stereo unspecified)
Percent Effect (%): 8.731
--
Compound: O=C1NCC2(CCCN(C(=O)c3ccc4c(c3)OCCO4)CC2)O1 (stereo unspecified)
Percent Effect (%): 12.75
--
Compound: CCOCCCNC(=O)c1cc(C(C)C)nc(N2CCCCCC2)n1
Percent Effect (%): 4.863
--
Compound: O=C(NCC1Cn2nnc(-c3ccsc3)c2CO1)N1CCCC1 (stereo unspecified)
Percent Effect (%): -5.299
--
Compound: O=C1CC(c2ccccc2)c2snc(C(=O)O)c2N1 (stereo unspecified)
Percent Effect (%): -4.128
--
Compound: O=C(C1CN(Cc2ccsc2)Cc2ccnn2C1)N1CCCC1.O=C(O)C(F)(F)F.O=C(O)C(F)(F)F (stereo unspecified)
Percent Effect (%): 5.087

====

Test system: Wolbachia pipientis
Assay Details: Anti-Wolbachia Cell-Based Screen
Type: functional
Set-up: scale not given: in the data most compounds retested in dose-response had high values
Experimental Setup: 5 µM
Out of some 48,000 compounds screened, about 13,000 (27%) showed an effect of 50% or more. Some of the results follow.
Outcome Measure: Percent Effect (%)

Molecule: CC(C)c1cc(NC(CCO)c2ccccc2)n2nccc2n1 (centres undefined)
Reported Measurement: 9.375
//
Molecule: Cc1ccccc1C(=O)N1Cc2c(Cn3ccnc3)nn(C)c2C1.O=C(O)C(F)(F)F
Reported Measurement: -9.207
//
Molecule: Cc1nc(C(C)N(C)Cc2nc(CCC(C)C)no2)c(C)s1 (centres undefined)
Reported Measurement: 1.881
//
Molecule: COCCN(C)C(=O)Cn1cccc(OC)c1=O
Reported Measurement: -3.023
//
Molecule: COc1nn(C)c2c1CCCN(C(=O)c1cccc3cccnc13)C2.O=C(O)C(F)(F)F
Reported Measurement: 97.34
//
Molecule: CC(NC(=O)c1ccc2c(c1)COC2)c1cccc(N2CCOC2=O)c1 (centres undefined)
Reported Measurement: -4.788
//
Molecule: CNC[C@H]1CC[C@H](c2cc(CN(C)S(=O)(=O)N(C)C)n(C)n2)CC1.Cl
Reported Measurement: 79.31
//
Molecule: Cc1nnc2n1CCN(C(=O)c1cnc3c(cnn3CC(C)C)c1)C2
Reported Measurement: -2.285
//
Molecule: O=S(=O)(c1cccc(F)c1)N1CCCCC1c1ccn[nH]1 (centres undefined)
Reported Measurement: 127.9
//
Molecule: O=c1cccnn1CC1CN(c2ncc(F)cn2)Cc2nccn2C1 (centres undefined)
Reported Measurement: 114.7
//
Molecule: Cc1cnc(N2Cc3nccn3CC(Cn3nc(C)nc3C)C2)nc1 (centres undefined)
Reported Measurement: 1.951
//
Molecule: Cc1cc2c(cc1Cl)C=CC1(CCN(C(=O)N3CCOCC3)CC1)O2
Reported Measurement: 95
//
Molecule: O=C1CC2(CCN(C(=O)c3ccc4c(c3)CCCO4)C2)C(=O)N1 (centres undefined)
Reported Measurement: -2.87
//
Molecule: CCS(=O)(=O)N1CCC2(CC1)CC1(CCN(CCOC)CC1)C(=O)N2C.O=C(O)C(F)(F)F
Reported Measurement: -5.19
//
Molecule: Cc1cc(C(=O)NCCc2cn3nc(C)sc3n2)c(C)o1
Reported Measurement: -4.861
//
Molecule: O=C(O)c1ccc(F)c(S(=O)(=O)Nc2c(F)cccc2-n2cccn2)c1
Reported Measurement: -5.743
//
Molecule: Cc1cc2c(cc1Cl)C=CC1(CCN(CC(=O)N3CCOCC3)CC1)O2
Reported Measurement: 104
//
Molecule: O=C(O)c1cc(S(=O)(=O)Nc2cccc(F)c2F)cc2c1OCCO2
Reported Measurement: 134.3
//
Molecule: O=C(O)C(F)(F)F.O=S(=O)(c1cccs1)N1CC[C@H]2[C@H]1CCN2c1ncccn1
Reported Measurement: -7.709
//
Molecule: Nc1cc(C(=O)N2CCCC3(C=Cc4ccccc4O3)CC2)ccn1 (centres undefined)
Reported Measurement: -15.12
//
Molecule: CC(C)CCN1CC2(CCN(C(=O)C3(C)CCCCO3)CC2)OC1=O (centres undefined)
Reported Measurement: -6.368
//
Molecule: COc1nn(C)c2c1CCCN(S(=O)(=O)c1cccc(F)c1)C2
Reported Measurement: -2.811
//
Molecule: COc1cccn(CC(=O)N(C)CCOc2cc(C)cc(C)c2)c1=O
Reported Measurement: -7.697
//
Molecule: Cc1cc(C(=O)N2CCCC3(C=Cc4ccccc4O3)CC2)cc(=O)[nH]1 (centres undefined)
Reported Measurement: 7.842
//
Molecule: O=C(NCC1CC1)C1CSCN1S(=O)(=O)c1cccc(F)c1 (centres undefined)
Reported Measurement: -6.551
//
Molecule: Cc1ccc(S(=O)(=O)N2CCOc3ccccc32)cc1C(=O)O
Reported Measurement: -0.06219
//
Molecule: CCN(C)S(=O)(=O)NCC1(c2cccc(Br)c2)CC1
Reported Measurement: 0.1722
//
Molecule: CC(=O)NCCNC(=O)c1sc(-c2ccc(Cl)s2)nc1C
Reported Measurement: -4.935
//
Molecule: Cc1nc(C)n(CC2CN(c3ncccn3)Cc3nccn3C2)n1 (centres undefined)
Reported Measurement: 9.978
//
Molecule: Cc1noc([C@@H]2C[C@H]3OCC[C@H]3N(Cc3sccc3C)C2)n1.O=C(O)C(F)(F)F
Reported Measurement: 9.269
//
Molecule: CN(c1c(F)cccc1F)S(=O)(=O)c1cc2c(c(C(=O)O)c1)OCCO2
Reported Measurement: 7.763
//
Molecule: COc1ncc(C(=O)N2CCCC3(C=Cc4ccccc4O3)CC2)cn1 (centres undefined)
Reported Measurement: 1.868
//
Molecule: O=C(O)C(F)(F)F.O=c1cccnn1CC1CN(CC2CCCC2)Cc2nccn2C1 (centres undefined)
Reported Measurement: 100.1
//
Molecule: Cc1nn(C)c(C)c1C(C(=O)O)N1CCc2ccccc2C1 (centres undefined)
Reported Measurement: 39.47
//
Molecule: O=C(O)c1cc(S(=O)(=O)Nc2ccc(F)cc2F)cc2c1OCCO2
Reported Measurement: 104.7
//
Molecule: Cc1cc(F)ccc1NS(=O)(=O)c1cc2c(c(C(=O)O)c1)OCCO2
Reported Measurement: 118
//
Molecule: COc1nn(C)c2c1CCCN(C(=O)c1cccc(C)n1)C2.O=C(O)C(F)(F)F
Reported Measurement: 98.8
//
Molecule: COc1ccnc(N2CCN(CC(=O)N3CCOCC3)CC2)n1
Reported Measurement: 3.835
//
Molecule: COc1cccc(CN2CCN(C(=O)CN3CCOCC3)CC2)n1
Reported Measurement: -0.8074
//
Molecule: CN1CCN(CCCNC(=O)c2cc(Cl)c3c(c2)OCO3)CC1
Reported Measurement: 11.84
//
Molecule: COCCSc1ccc(C(C)NC(=O)Nc2cn[nH]c2)cc1 (centres undefined)
Reported Measurement: -2.849
//
Molecule: Cc1occc1C(=O)N1CCCC2(CCN(c3ccccc3)C2=O)C1 (centres undefined)
Reported Measurement: 4.886
//
Molecule: CC(Nc1nc2c(cnn2C)c(=O)[nH]1)c1ccc(F)cc1 (centres undefined)
Reported Measurement: -20.73
//
Molecule: CCN(C)c1ncnc2c1CCN(C(=O)N1CCOCC1)CC2
Reported Measurement: -3.195
